# credit: the supplement of paper PMC10567573

B1: PBXIP1 (parent)
chain: LPVETLGPASRMDPESERALQAPH

Variants of: B1
Experiment: protein stability index of a GFP-peptide fusion (GPS, HEK-293T) (PSI 1-6); higher = more stable;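 also: lentivirally expressed fusions sorted by FACS into six bins by GFP to DsRed ratio, PSI derived from sequencing read proportions per bin multiplied by bin number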
Conditions: c terminus: a fixed tail appended
Quick reference: protein stability index of the listed items.
reportedMetric: protein stability index

[[record]]
variantdescriptor = "E15I"
reportedmetric = "protein stability index"
measurednumber = 3.27

[[record]]
variantdescriptor = "P23H"
reportedmetric = "protein stability index"
measurednumber = 4.45

[[record]]
variantdescriptor = "G7V"
reportedmetric = "protein stability index"
measurednumber = 4.95

[[record]]
variantdescriptor = "A9M"
reportedmetric = "protein stability index"
measurednumber = 4.12

[[record]]
variantdescriptor = "E15N"
reportedmetric = "protein stability index"
measurednumber = 4.47

[[record]]
variantdescriptor = "P14W"
reportedmetric = "protein stability index"
measurednumber = 3.81

[[record]]
variantdescriptor = "V3N"
reportedmetric = "protein stability index"
measurednumber = 5.42

[[record]]
variantdescriptor = "Q21I"
reportedmetric = "protein stability index"
measurednumber = 4.09

[[record]]
variantdescriptor = "D13Y"
reportedmetric = "protein stability index"
measurednumber = 3.73

[[record]]
variantdescriptor = "A9C"
reportedmetric = "protein stability index"
measurednumber = 3.68

[[record]]
variantdescriptor = "P23E"
reportedmetric = "protein stability index"
measurednumber = 4.8

[[record]]
variantdescriptor = "S10W"
reportedmetric = "protein stability index"
measurednumber = 4.4

[[record]]
variantdescriptor = "P2S"
reportedmetric = "protein stability index"
measurednumber = 4.4

[[record]]
variantdescriptor = "E15T"
reportedmetric = "protein stability index"
measurednumber = 4.02

[[record]]
variantdescriptor = "L20I"
reportedmetric = "protein stability index"
measurednumber = 4.55

[[record]]
variantdescriptor = "G7A"
reportedmetric = "protein stability index"
measurednumber = 5.51

[[record]]
variantdescriptor = "S16K"
reportedmetric = "protein stability index"
measurednumber = 4.34

[[record]]
variantdescriptor = "E4W"
reportedmetric = "protein stability index"
measurednumber = 3.71

[[record]]
variantdescriptor = "A19C"
reportedmetric = "protein stability index"
measurednumber = 4.48

[[record]]
variantdescriptor = "A22L"
reportedmetric = "protein stability index"
measurednumber = 3.98

[[record]]
variantdescriptor = "P14R"
reportedmetric = "protein stability index"
measurednumber = 4.19

[[record]]
variantdescriptor = "A9H"
reportedmetric = "protein stability index"
measurednumber = 4.91

[[record]]
variantdescriptor = "R18M"
reportedmetric = "protein stability index"
measurednumber = 4.73

[[record]]
variantdescriptor = "L20K"
reportedmetric = "protein stability index"
measurednumber = 4.41

[[record]]
variantdescriptor = "E15F"
reportedmetric = "protein stability index"
measurednumber = 3.81

[[record]]
variantdescriptor = "P2A"
reportedmetric = "protein stability index"
measurednumber = 4.24

[[record]]
variantdescriptor = "D13G"
reportedmetric = "protein stability index"
measurednumber = 4.41

[[record]]
variantdescriptor = "R18H"
reportedmetric = "protein stability index"
measurednumber = 4.77

[[record]]
variantdescriptor = "S16C"
reportedmetric = "protein stability index"
measurednumber = 4.49

[[record]]
variantdescriptor = "L6V"
reportedmetric = "protein stability index"
measurednumber = 4.45

[[record]]
variantdescriptor = "A19S"
reportedmetric = "protein stability index"
measurednumber = 4.19

[[record]]
variantdescriptor = "A19I"
reportedmetric = "protein stability index"
measurednumber = 4

[[record]]
variantdescriptor = "M12Q"
reportedmetric = "protein stability index"
measurednumber = 4.89

[[record]]
variantdescriptor = "S10T"
reportedmetric = "protein stability index"
measurednumber = 4.78

[[record]]
variantdescriptor = "R18A"
reportedmetric = "protein stability index"
measurednumber = 4.57

[[record]]
variantdescriptor = "D13A"
reportedmetric = "protein stability index"
measurednumber = 4.61

[[record]]
variantdescriptor = "G7D"
reportedmetric = "protein stability index"
measurednumber = 5.29

[[record]]
variantdescriptor = "R11H"
reportedmetric = "protein stability index"
measurednumber = 3.71

[[record]]
variantdescriptor = "H24F"
reportedmetric = "protein stability index"
measurednumber = 4.21

[[record]]
variantdescriptor = "L1Q"
reportedmetric = "protein stability index"
measurednumber = 5.33

[[record]]
variantdescriptor = "E4V"
reportedmetric = "protein stability index"
measurednumber = 4.62

[[record]]
variantdescriptor = "L6A"
reportedmetric = "protein stability index"
measurednumber = 5.19

[[record]]
variantdescriptor = "A9K"
reportedmetric = "protein stability index"
measurednumber = 4.77

[[record]]
variantdescriptor = "Q21P"
reportedmetric = "protein stability index"
measurednumber = 4.53

